Numbers sourced from ChEMBL document CHEMBL1764956.

# System: RAW264.7
# method: Cytotoxicity against mouse RAW264.7 cells assessed as cell viability after 4 hrs by MTT assay
# Format: cell-based
# measurement_parameters: RAW264.7, 4 h
Attribute: log10 IC50
property_label: log10 IC50 (log10 of the value in µM)

smiles | target_system | log10 IC50
CCOc1cc(O)c(C(=O)/C=C/c2ccccc2)cc1CN1CCOCC1 | RAW264.7 | 0.20
O=C(/C=C/c1cccs1)c1cccc(O)c1CN1CCOCC1 | RAW264.7 | 1.10
COc1cc(O)c(C(=O)/C=C/c2ccccc2)cc1CN1CCOCC1 | RAW264.7 | -0.72
O=C(/C=C/c1ccccn1)c1ccc(CN2CCOCC2)c(O)c1 | RAW264.7 | 1.89
CC(C)Oc1cc(O)c(C(=O)/C=C/c2cccs2)cc1CN1CCOCC1 | RAW264.7 | 1.68
COc1cc(O)c(C(=O)/C=C/c2cccnc2)cc1CN1CCOCC1 | RAW264.7 | 3.45
O=C(/C=C/c1ccccc1)c1cccc(O)c1CN1CCOCC1 | RAW264.7 | 1.00
CCOc1cc(O)c(C(=O)/C=C/c2ccco2)cc1CN1CCOCC1 | RAW264.7 | 1.23
CC(C)Oc1ccc(C(=O)/C=C/c2cccs2)c(O)c1CN1CCOCC1 | RAW264.7 | 1.53
O=C(/C=C/c1cccnc1)c1ccc(O)c(CN2CCOCC2)c1 | RAW264.7 | 1.73
COc1ccc(C(=O)/C=C/c2ccccn2)c(O)c1CN1CCOCC1 | RAW264.7 | 1.03

----------
# Test system: Neutrophil
# method: Inhibition of FMLP/CB-stimulated elastase release in human neutrophils at 30 uM treated for 5 mins before FMLP/CB challenge using MeO-Suc-Ala-Ala-Pro-Val-p-nitroanilide as a substrate relative to control
# Type: functional
Catalogue of inhibition at 30 µM values

smiles | inhibition at 30 µM (%)
O=C(/C=C/c1cccnc1)c1ccc(O)c(CN2CCOCC2)c1 | 20.4
Cc1ccsc1/C=C/C(=O)c1cc(CN2CCOCC2)c(O)c(CN2CCOCC2)c1 | 15.4
COc1cc(O)c(C(=O)/C=C/c2ccco2)cc1CN1CCOCC1 | 17.9
O=C(/C=C/c1ccccc1)c1ccc(O)c(CN2CCOCC2)c1 | 9.32
O=C(/C=C/c1cccs1)c1ccc(O)c(CN2CCOCC2)c1 | 19.3
O=C(/C=C/c1ccco1)c1cccc(O)c1CN1CCOCC1 | 39.7

----------
# System: RAW264.7
# method: Cytotoxicity against mouse RAW264.7 cells assessed as cell viability after 4 hrs by MTT assay
# Format: cell-based
# measurement_parameters: RAW264.7, 4 h
The label is 1.0 for IC50 below 100 µM and 0.0 for IC50 equal to or exceeding 100 µM.

smiles | target_system | class
Cc1ccsc1/C=C/C(=O)c1cccc(O)c1CN1CCOCC1 | RAW264.7 | 0.0
O=C(/C=C/c1ccccn1)c1ccc(O)c(CN2CCOCC2)c1O | RAW264.7 | 1.0
O=C(/C=C/c1ccco1)c1cccc(O)c1CN1CCOCC1 | RAW264.7 | 1.0
O=C(/C=C/c1ccncc1)c1ccc(CN2CCOCC2)c(O)c1 | RAW264.7 | 0.0
Cc1ccc(/C=C/C(=O)c2ccc(O)c(CN3CCOCC3)c2)o1 | RAW264.7 | 1.0
O=C(/C=C/c1cccs1)c1ccc(O)c(CN2CCOCC2)c1 | RAW264.7 | 0.0

----------
# Test system: RAW264.7
# method: Cytotoxicity against mouse RAW264.7 cells assessed as cell viability after 4 hrs by MTT assay
# Type: cell-based
# measurement_parameters: RAW264.7, 4 h
Listing of entries alongside the reported IC50.

smiles | IC50 / µM
CCOc1cc(O)c(C(=O)/C=C/c2cccnc2)cc1CN1CCOCC1 | 4.46
Cc1ccsc1/C=C/C(=O)c1cc(CN2CCOCC2)c(O)c(CN2CCOCC2)c1 | 56.9
O=C(/C=C/c1ccccn1)c1ccc(CN2CCOCC2)c(O)c1CN1CCOCC1 | 24.3
O=C(/C=C/c1ccccc1)c1ccc(O)c(CN2CCOCC2)c1 | 35
O=C(/C=C/c1ccncc1)c1ccc(O)c(CN2CCOCC2)c1 | 111
COc1ccc(/C=C/C(=O)c2cc(CN3CCOCC3)c(OC)cc2O)cc1 | 1860
COc1cc(O)c(C(=O)/C=C/c2cccs2)cc1CN1CCOCC1 | 148
COc1cc(O)c(C(=O)/C=C/c2ccco2)cc1CN1CCOCC1 | 1440
CC(C)=CCOc1ccc(C(=O)/C=C/c2sccc2C)c(O)c1CN1CCOCC1 | 11
CCOc1cc(O)c(C(=O)/C=C/c2sccc2C)cc1CN1CCOCC1 | 2060
CCOc1cc(O)c(C(=O)/C=C/c2ccc(C)o2)cc1CN1CCOCC1 | 91.3
O=C(/C=C/c1ccco1)c1ccc(O)c(CN2CCOCC2)c1 | 10
CCOc1cc(O)c(C(=O)/C=C/c2ccccn2)cc1CN1CCOCC1 | 0.18
O=C(/C=C/c1ccccn1)c1ccc(O)c(CN2CCOCC2)c1 | 6.56
O=C(/C=C/c1ccccn1)c1cc(CN2CCOCC2)c(O)c(CN2CCOCC2)c1 | 190
